The entries below come with measured Emax at 2 h, 10 µM values attached.
target_entity: 5-HT2B receptor (Homo sapiens, UniProt P41595)
Sequence (P41595 whole entry): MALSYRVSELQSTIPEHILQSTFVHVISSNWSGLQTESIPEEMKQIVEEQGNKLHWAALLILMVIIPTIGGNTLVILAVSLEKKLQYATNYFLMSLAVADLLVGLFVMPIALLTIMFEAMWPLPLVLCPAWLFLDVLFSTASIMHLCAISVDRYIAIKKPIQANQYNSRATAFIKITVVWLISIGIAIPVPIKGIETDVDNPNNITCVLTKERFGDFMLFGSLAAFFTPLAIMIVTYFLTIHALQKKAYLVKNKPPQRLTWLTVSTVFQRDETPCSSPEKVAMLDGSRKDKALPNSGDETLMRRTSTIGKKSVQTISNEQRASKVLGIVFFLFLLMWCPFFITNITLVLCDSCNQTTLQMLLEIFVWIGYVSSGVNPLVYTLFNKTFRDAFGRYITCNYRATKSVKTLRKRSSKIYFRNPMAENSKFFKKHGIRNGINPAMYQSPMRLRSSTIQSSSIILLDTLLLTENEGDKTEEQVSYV
assay: Agonist activity at 5-HT2B receptor (unknown origin) expressed in HEK293 cells assessed as [3H]inositol phosphate accumulation at 10 uM after 2 hrs by scintillation counting relative to serotonin
Assay type: cell-based
condition_set: HEK293 cells expressing 5-HT2B receptor
Give the quantity in %, number only.

These solved cases illustrate the format of a correct answer.
compound	measurement_label	endpoint_value
Fc1ccc2c(c1)CCC1CNCCN21 (stereo not given)	Emax at 2 h, 10 µM	44
c1cc(Cc2ccc3c(c2)OCO3)c2c(c1)N1CCNCC1CC2 (stereo not given)	Emax at 2 h, 10 µM	26
c1cc(OC2CCC2)c2c(c1)N1CCNCC1CC2 (stereo not given)	Emax at 2 h, 10 µM	9
Fc1ccc2c(c1)N1CCNCC1CC2 (stereo not given)	Emax at 2 h, 10 µM	38
Clc1cccc2c1N1CCCNCCC1CC2 (stereo not given)	Emax at 2 h, 10 µM	20
CCSc1cccc2c1CCC1CNCCN21 (stereo not given)	Emax at 2 h, 10 µM	46
c1ccc2c(c1)CC[C@@H]1CNCCN21	Emax at 2 h, 10 µM	28
Clc1ccc2c(c1)CCC1CCNCCCN21 (stereo not given)	Emax at 2 h, 10 µM	71
c1cc(CC2CCC2)c2c(c1)N1CCNCC1CC2 (stereo not given)	Emax at 2 h, 10 µM	31

Let us examine a further case.
Answer with the recorded Emax at 2 h, 10 µM of `c1ccc2c(c1)CC[C@@H]1CCNCCCN21` only.
53

====

target_entity: UniProtKB P28223
Sequence (P28223 whole entry): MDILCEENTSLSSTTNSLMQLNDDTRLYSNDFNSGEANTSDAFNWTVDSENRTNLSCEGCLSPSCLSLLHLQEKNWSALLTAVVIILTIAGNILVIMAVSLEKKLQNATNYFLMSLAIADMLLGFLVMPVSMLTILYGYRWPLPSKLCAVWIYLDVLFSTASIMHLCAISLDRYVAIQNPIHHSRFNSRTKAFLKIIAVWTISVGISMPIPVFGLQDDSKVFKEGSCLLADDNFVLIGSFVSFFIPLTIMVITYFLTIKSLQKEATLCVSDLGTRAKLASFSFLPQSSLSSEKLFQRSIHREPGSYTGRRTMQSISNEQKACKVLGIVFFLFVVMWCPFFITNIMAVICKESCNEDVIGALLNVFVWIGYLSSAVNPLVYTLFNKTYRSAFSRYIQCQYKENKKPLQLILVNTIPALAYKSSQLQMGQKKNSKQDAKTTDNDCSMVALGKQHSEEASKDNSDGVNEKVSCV
assay: Displacement of [125I]DOI from recombinant human 5-HT2A receptor expressed in HEK293 cell membranes after 1 hr by scintillation counting
measurement_label: Ki (nM)
API: value field is a number in nM; no unit string.

Example results:
compound	unit_label	Ki
c1cc(Cc2ccc3c(c2)OCO3)c2c(c1)N1CCNCC1CC2 (configuration not stated)	nM	1.58
CC1(C)Cc2cccc(Cl)c2N2CCNCC21 (configuration not stated)	nM	2000
c1cc(CC2CCC2)c2c(c1)N1CCNCC1CC2 (configuration not stated)	nM	7.94
c1ccc(Cc2cccc3c2CCC2CNCCN32)cc1 (configuration not stated)	nM	1.58
Fc1ccc2c(c1Cc1ccccc1)CCC1CNCCN21 (configuration not stated)	nM	0.631
CCCc1cccc2c1CCC1CNCCN21 (configuration not stated)	nM	6.31

Give the measured Ki for c1csc(Cc2cccc3c2CCC2CNCCN32)c1 (configuration not stated)
25.1

====

target_entity: 5-hydroxytryptamine receptor 2C (Homo sapiens, UniProt P28335)
Sequence (P28335 whole entry): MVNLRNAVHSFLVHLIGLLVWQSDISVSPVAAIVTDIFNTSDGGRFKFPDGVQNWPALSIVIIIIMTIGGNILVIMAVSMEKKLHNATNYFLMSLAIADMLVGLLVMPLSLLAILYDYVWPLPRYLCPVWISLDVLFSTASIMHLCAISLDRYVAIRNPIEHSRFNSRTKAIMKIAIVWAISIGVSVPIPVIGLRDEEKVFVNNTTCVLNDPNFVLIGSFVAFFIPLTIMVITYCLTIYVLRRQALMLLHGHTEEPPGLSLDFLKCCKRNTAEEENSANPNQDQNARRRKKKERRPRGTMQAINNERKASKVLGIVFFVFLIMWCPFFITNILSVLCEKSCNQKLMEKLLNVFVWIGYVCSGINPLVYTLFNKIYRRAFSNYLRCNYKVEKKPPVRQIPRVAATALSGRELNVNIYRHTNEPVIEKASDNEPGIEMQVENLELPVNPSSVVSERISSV
assay: Displacement of [125I]DOI from recombinant human 5-HT2C receptor expressed in HEK293 cell membranes after 1 hr by scintillation counting
measurement_label: Ki (nM)
Numbers only; they are read as nM.

compound	target_entity	endpoint_value
c1ccc(Cc2cccc3c2CCC2CNCCN32)cc1 (configuration not stated)	5-hydroxytryptamine receptor 2C (Homo sapiens, UniProt P28335)	0.631
Fc1ccc2c(c1Cc1ccccc1)CCC1CNCCN21 (configuration not stated)	5-hydroxytryptamine receptor 2C (Homo sapiens, UniProt P28335)	0.398
CC1(C)Cc2cccc(Cl)c2N2CCNCC21 (configuration not stated)	5-hydroxytryptamine receptor 2C (Homo sapiens, UniProt P28335)	794
c1csc(Cc2cccc3c2CCC2CNCCN32)c1 (configuration not stated)	5-hydroxytryptamine receptor 2C (Homo sapiens, UniProt P28335)	0.316
c1cc(CC2CCC2)c2c(c1)N1CCNCC1CC2 (configuration not stated)	5-hydroxytryptamine receptor 2C (Homo sapiens, UniProt P28335)	0.631
CCCc1cccc2c1CCC1CNCCN21 (configuration not stated)	5-hydroxytryptamine receptor 2C (Homo sapiens, UniProt P28335)	0.398

Check the records and state Ki for c1cc(Cc2ccc3c(c2)OCO3)c2c(c1)N1CCNCC1CC2 (configuration not stated)
0.794
